test system: L1210; assay: MTS cytotoxicity assay, L1210; conditions: Mus musculus, L1210, 24 h
EXPERIMENTAL READOUT: IC50 (nM)
Answer with a number only, understood to be in nM.

GET /values?readout=IC50&system=L1210&item= COc1cccc2c1C(=O)c1c(O)c3c(c(O)c1C2=O)C[C@@](O)(C(=O)CO)C[C@@H]3O[C@H]1C[C@H](N)[C@H](O)[C@H](C)O1 [Dox, doxorubicin, reference compound]
50

Fill in the recorded IC50 for this molecule, with L1210 as test system: CN(C)CCNc1ccc(NCCN(C)C)c2c1C(=O)c1c(O)ccc(O)c1C2=O [AQ4]
1.2
